Assay comment: yeast display, Sf9 membrane polyspecificity reagent, FACS + sequencing; frameworks hold sequencing errors
Parameter: polyreactivity (PSR sort gate)

Before answering, review these 4 worked examples.
>  <Residue codes>
QVQLVESGGGLVQAGGSLRLSCAASGSTFVPYAIGWYRQAPGTERELVAAISSRGGRTSYADSVKGRFTISRDNAKNTVYLQMKRLKPEDTAVYYCIALYPGRLTDYSRSKMEYWGQGTQVTVSS

>  <Parameter>
polyreactivity (PSR sort gate)

>  <Value measured>
high polyreactivity

$$$$
>  <Residue codes>
QVQLVESGGGLVHAGGSLRLSCSASGYTFAYNAMGWYRQAPGKERELVAAITSRAGSTHYADSVKGRFTISRDNAKNTVYLQMNSLKPEDTAVYYCAAKRYNRLRSYRYSDREDYWGQGTQVSVSS

>  <Parameter>
polyreactivity (PSR sort gate)

>  <Value measured>
high polyreactivity

$$$$
>  <Residue codes>
QVQLVESGGGLVQAGGSLRLSCAASGRIFRGYVMGWYRQAPGKERELVAITIGAGRTYYADSVKGRFTISRDNAKNTVYLQMISLKPEDTAVYYFAVRLYANSGRFDYWGQGTQVTVSS

>  <Parameter>
polyreactivity (PSR sort gate)

>  <Value measured>
low polyreactivity

$$$$
>  <Residue codes>
QVQLVESGGGLVQAGGSLRLSCAASGSIFASNAMGWYRQAPGKERGLVAAITYNGGSTYYADSVKGRFTISRDNAKNTVYLQMNSLKPEDTAVYYCAALGTRRPHIPRGDYWGQGTQVTVSS

>  <Parameter>
polyreactivity (PSR sort gate)

>  <Value measured>
low polyreactivity

$$$$

Ask: Tell me polyreactivity (PSR sort gate) reported for `QVQLVESGGGLVQAGGSLRLSCAASGRIFTYYAMGWYRQAPGKERELVAAINFNSGSTYYADSVKGRFTISRDTAKNTVYLQMNSLKPEDTAVYYCAAVPRRGLPKSYYYWGQGTQVTVSS`
Result: high polyreactivity

====

Assay comment: yeast display, Sf9 membrane polyspecificity reagent, FACS + sequencing; frameworks hold sequencing errors
Parameter: polyreactivity (PSR sort gate)

Before answering, review these 4 worked examples.
>  <Residue codes>
QVQLVESGGGLVQAGGSLRLSCAASGSTFKVYTMGWYRPAPGKERELVAAISGGGGSTYYADSVKGRFTISRDNAKNTVYLQMNSLNPEDTAVYYCAAQKRGPGYPYYYWGQGTQVTVSS

>  <Value measured>
high polyreactivity

$$$$
>  <Residue codes>
QVQHVESGGGLVQAGGSLRLSCAAYGSIFVYYAMGWYRKAPGKERDLFAAISSSGDTTYYADSVKGRYTISRDNAKNTVYLQMNSLKPEDTAVYYCAARVRVYRHASNYYWGQCTQVTVSS

>  <Value measured>
high polyreactivity

$$$$
>  <Residue codes>
QVQLVESGGGLVQAGGSLRLSCADSGRIFDVNDKRSYRQAPGKERELVAAITYSGTDTYYADSVKGRFTISRDNAKNTVYLQMNSLKPEDTAVYYCAAEFTGWEYIGRDYWGQGTQVTVSS

>  <Value measured>
low polyreactivity

$$$$
>  <Residue codes>
QVQLVESGGGLVQAGGSLRLSCAASGSNIKYYAMGWYRQAPGKERELVARITSDGGSTFYADSVKGRFTISRDNAKNTVYLQMNSLKPEDTAVYYCNTAYAFRHCWFYPMDYWGQGTQVTVSS

>  <Value measured>
high polyreactivity

$$$$

// moving on: another record for polyreactivity (PSR sort gate)
Ask: Tell me polyreactivity (PSR sort gate) reported for `QVQLVESGGGLVQAGGSLRLSCAASGYIFYSNDMGWSRQAPGKVRELVAAIDNGGSTTYADSVKGRFTISRDNAKNTVYLQMNSLKPEDTAVYYCATDNPFTSTTYDYWGQGTQVTVSS`
Result: low polyreactivity

====

Assay comment: yeast display, Sf9 membrane polyspecificity reagent, FACS + sequencing; frameworks hold sequencing errors
Parameter: polyreactivity (PSR sort gate)

Before answering, review these 5 worked examples.
>  <Residue codes>
QVHLQESGGGLVQAGGSLRLSCAASGTITVLYKMGWFRQAPGKEREFVASINYGTSTYYADSVKGRFTVSRDSAKNTVYLQMNSLKPEDTAVYYCAAAYRWQDVYRYWGQGTQVTVSS

>  <polyreactivity (PSR sort gate)>
low polyreactivity

$$$$
>  <Residue codes>
QVQLVESGGGLLQAGGSLRLSCAASGFTFSYYAKGWYRQAPGKERELVAVISDRGGITYYADSVKGRFTISRDNAKNTVYLQMNSVKPEDTAVYYCAADLDSWYGYYYIVEYWGQGTQVTVSS

>  <polyreactivity (PSR sort gate)>
low polyreactivity

$$$$
>  <Residue codes>
QVQLVESGGGLVQAGCSLRLSCAASGFIFVRNAMGWYRQAPGKERELVAAISSSGGSTNYADSVKGRFTISRDNAKNTVYLQMNSLKPEDTAVYYCNAQRYYDYWGQGTQVTVSS

>  <polyreactivity (PSR sort gate)>
high polyreactivity

$$$$
>  <Residue codes>
QVQLVESGGGLVQAGGSLRLSCAASGGIFKYNAMGWYRQAPGKERELVAAIDTSGGSTYYADSVKGRFTISRDNAKNTVYLQMNSLKPEDTAVYYCARRWSYQRPSFEYDSWGQGTQVTVSS

>  <polyreactivity (PSR sort gate)>
low polyreactivity

$$$$
>  <Residue codes>
QVQLVESAAGLVQAGGSLRLSGAASGRIFRYYAMGCYRQAPGKEREFVAGITWSGGRTYYADSVKGRFTISRANAKNTVYLQMNTLKREDTAVYYCAADGWGYSFQWQDHDYWGQGTQVTVSS

>  <polyreactivity (PSR sort gate)>
low polyreactivity

$$$$

Ask: Tell me polyreactivity (PSR sort gate) reported for `QVQLVESGGGLVQAGGSLRLSCAASGRTFYGNAMGWYRQAPGKERELVAAITSGGGSTRYADSVKGRFTISRDNAKNTVYLQMNSLKPEDTAVYYCNATLGNFGYRRYSGHTRYYYWGQGTQVTVSS`
Result: high polyreactivity

Ask: Tell me polyreactivity (PSR sort gate) reported for `QVQLVESGGGLVQAGGSLRLSCAASGGIFSTYTMGWYRQAPGKERELVAAISQSGGTTYYADSVKGRFTISRDNAKNTVYLQMNSLKPEDTAVYYCAAEPTQADYDYWGQGTQVTVSS`
Result: low polyreactivity

Ask: Tell me polyreactivity (PSR sort gate) reported for `QVQLVESGGGLVQAGGSLRLSCAASGRIFHVNAMGWYRQAPGKERELVAAISTSGGRTYYADSVKGRFTISRDNAKNTVYLQLNSLKPEVTAVYYCAAVSRAPGLRYDYWGQGTQVTVSS`
Result: high polyreactivity

Ask: Tell me polyreactivity (PSR sort gate) reported for `QVQLVESGGGIVQAGGSLRLSSAASGFIFARYAMGWYRQAPGKERELVAAISSGGRTYYADSVKGRFTISRDNAKNTVYLQMNSLKPEDTAVYYCAADPASSYGKYSYYYWGQGTQVTVSS`
Result: high polyreactivity

Ask: Tell me polyreactivity (PSR sort gate) reported for `QVQLVESGGGLVQAGGSLRLSCAASGFTFPANDMGWYIQAPGKERELVATITWSGGNTYYADSVKGRFTISRDNAKNTVYLQMNSLKPEDTAVYYCAKDYDPYHEQQSSEHDDYWGQGTQVTVSS`
Result: low polyreactivity

Ask: Tell me polyreactivity (PSR sort gate) reported for `QVQLVESGGGLVQAGGSLRLSCAASGRNFSRYAMGWYRQAPGKERELVAAISRRGGSTYYADSVKGRFTISRDNAKNTVYLQMNSLKPEDTAVYFCAKYPSAYVDSDVTYDMDYWGQGTQVTVSS`
Result: low polyreactivity

====

Assay comment: yeast display, Sf9 membrane polyspecificity reagent, FACS + sequencing; frameworks hold sequencing errors
Parameter: polyreactivity (PSR sort gate)

>  <Residue codes>
QVQLVESGGGLVQAGGSLRLSCAASGFTFSGHTMGWSRQAPGKERELVATISRTGGITYYADSVKGRFTISRDNAKNTVLLQMNSLKPEDTAVYYCNRRYYYFVYPDDYWGQGTQVTVSS

>  <Value measured>
high polyreactivity

$$$$
>  <Residue codes>
QVQLVESGGGLVQAGGSLRLSCAASGRTFSTYAMGWYRQAPGKEREMVAAISSGGGRTYYADSVKGRFTISRDYAKNTVYLQMNSLKPEDTAVYYSAADGYLRSRHGDYWGQGTQVTVSS

>  <Value measured>
low polyreactivity

$$$$
>  <Residue codes>
QVQLVESGGCLVQAGGSLRLSCAASGSTIGVNAMGWYRQAPGKERELVAAISRGGGRTYYADSVKGRFTISRDNAKNTVYLQMNSLKPEDTAVYYCNTDFGARMGYCGQGTQVTVSS

>  <Value measured>
high polyreactivity

$$$$
>  <Residue codes>
QVQLVESGGGLVQAGGSLRLSCAASGSIFGKYAMGWYRQAPAKERELVAAISDSGSITYYADSVKGRFTISRDNAKNTVYLQMNSLKPEDTAVYYCAAEVKYYQSFKYDYWGQGTQVTVSS

>  <Value measured>
high polyreactivity

$$$$

// moving on: another record for polyreactivity (PSR sort gate)
Ask: Tell me polyreactivity (PSR sort gate) reported for `QVQIVESGGGLVQAGGSLRLSCAASGSIFYYYAMGWYRQAPGNERELVADISISGGSTYYADSVKGRFTISRDTAKNTVYLQMNSQKPEDTAVYYSAATSTYRSYLEYDYWGQGTQVTVSS`
Result: low polyreactivity

Data provenance is the nanobody polyreactivity screen of Harvey et al. (2022).
